experiment_notes: Human HepG2 cell viability assay in 384 well format
Format: toxicity, cell-based
Parameters: dose 125 nL, time 70.5 hour; concentration not given beside the values
experimental_setup: HepG2 cells, read-out: Inhibition
measured_endpoint: cytotoxicity at 70.5 h (%)

>>> print(df.to_string())
                                   molecule  unit_label  readout_number
0           CCn1nnc(NCc2cc(Br)cc(Br)c2OC)n1           %           -18.9
1     CC(C)(C)NC(=O)COc1ccc(CNCc2ccccn2)cc1           %            25.3
2  Cc1ccc(CN2CCOC3(COCCN(S(C)(=O)=O)C3)C2)o1 (stereo unspecified)           %           -5.62
3    CCOc1cc(CNC(=O)c2cc(-c3ccccn3)no2)ccn1           %            -6.7
4  O=C(C1CC=CC1)N1C[C@@H]2CN(Cc3ccsc3)CCO[C@@H]2C1           %           -15.4
5  CCC(CO)N(Cc1ccccc1C)Cc1ccccc1C(=O)O (stereo unspecified)           %           -2.15

* * *

experiment_notes: Human HepG2 cell viability assay in 384 well format
Type: toxicity, cell-based
Parameters: dose 125 nL, time 70.5 hour; concentration not given beside the values
experimental_setup: HepG2 cells, read-out: Inhibition
measured_endpoint: cytotoxicity at 70.5 h (%)

>>> df
                                    compound       measured_endpoint  unit_label  readout_number
 0      Cc1cnn(CCNCc2c(C)nn(-c3ccccc3)c2C)c1  cytotoxicity at 70.5 h           %            2.45
 1  Cc1cnccc1NCCNC(=O)[C@H]1CNC[C@H](C(=O)N2CCCC2)C1  cytotoxicity at 70.5 h           %           -4.18
 2  Cc1csc(CN2CCC[C@]3(C[C@@H](Oc4ccccn4)CO3)C2)n1  cytotoxicity at 70.5 h           %            1.82
 3  O=C([C@H]1CCCO1)N1CCCC2(CCN(Cc3ccncc3)C2=O)C1 (some centres undefined)  cytotoxicity at 70.5 h           %            22.1
 4  COc1ccc(CN(C)C(=O)CSc2nnc(N)s2)c(OC)c1OC  cytotoxicity at 70.5 h           %            -5.3
 5     Cc1nn(C)c2c(=O)n(Cc3ccc(C#N)cc3)nnc12  cytotoxicity at 70.5 h           %           -10.1
 6  O=C(NCCCN1CCCCCC1=O)c1n[nH]c(=O)c2ccccc12  cytotoxicity at 70.5 h           %           -2.46
 7  CCn1cc(NC(=O)C(C)n2ncc(Cl)c2C)c(C(=O)NC)n1 (centres undefined)  cytotoxicity at 70.5 h           %           -3.34
 8  NC(=O)C(CNC(=O)Cc1ccc(F)cc1)Cc1ccc(F)cc1 (centres undefined)  cytotoxicity at 70.5 h           %           -7.46
 9  CC(C)C(=O)N1CCN(CC(O)c2cc(Cl)ccc2Cl)CC1 (centres undefined)  cytotoxicity at 70.5 h           %           -7.34
10      Cn1cc(CCC(=O)NCc2ccccc2OC(C)(C)C)cn1  cytotoxicity at 70.5 h           %            2.39
11       CN(CC(=O)NCCC#N)C(c1ccccc1)c1ccccc1  cytotoxicity at 70.5 h           %           -14.5
12  O=C(c1cncs1)N1CCOCC(Cc2ccccn2)C1 (centres undefined)  cytotoxicity at 70.5 h           %           -2.59
13  CNc1snc(C)c1C(=O)N1CCCC(n2nc(C)nc2C)C1 (centres undefined)  cytotoxicity at 70.5 h           %           -10.6
14  CN(Cc1ccccc1)CC(O)Cn1cnc2ccsc2c1=O (centres undefined)  cytotoxicity at 70.5 h           %           -8.61
15  Cc1nnc(SCC(=O)NCc2ccc3c(c2)CCC(=O)N3)n1C  cytotoxicity at 70.5 h           %              -3
16  CC(NC(=O)N1CCS(=O)(=O)CC1)c1c(F)cccc1Cl (centres undefined)  cytotoxicity at 70.5 h           %           -4.16
17  O=C1CCC2(CCCN(C(=O)c3ccc[nH]3)C2)CN1CCc1c[nH]cn1 (centres undefined)  cytotoxicity at 70.5 h           %            16.9
18   Cc1cc(CNC(=O)NCCC(=O)N2CCCc3ccccc32)no1  cytotoxicity at 70.5 h           %             7.7
19  CCC(=O)N1C[C@@H](C(=O)NC)[C@H](c2ccnc(N3CCCC3)n2)C1  cytotoxicity at 70.5 h           %           -3.94
20         O=C(CCNc1ncccn1)N1CCN(c2nccs2)CC1  cytotoxicity at 70.5 h           %           -16.3
21               CCN1CCOCC12CCN(c1cnccn1)CC2  cytotoxicity at 70.5 h           %           -7.58
22  CCc1noc(C(C)N2CCNCC2)n1 (centres undefined)  cytotoxicity at 70.5 h           %          0.0476
23  COCCN(Cc1cnn(C)c1)C(=O)C1COc2c(cccc2OC)C1 (centres undefined)  cytotoxicity at 70.5 h           %            0.35
